Tested on: Rattus norvegicus
Measurement notes: Percentage change of triglycerides in obese female Zucker rats after 2 weeks of pre-treatment at a dose of 100 mg/kg/day
Format: functional
Parameter measured: Change (%)

compound=CC(C)(CO)Cc1cccc(C(=O)c2cccc(CC(C)(C)CO)c2)c1 assay_target="Rattus norvegicus" reported=-8
compound="CC(C)Cc1ccc(C(C)(CO)CCCCC(=O)CCCCC(C)(CO)c2ccc(CC(C)C)cc2)cc1 (stereo unspecified)" assay_target="Rattus norvegicus" reported=-15
compound="CC(C)Cc1ccc(C(C)(CCCCC(=O)CCCCC(C)(C(=O)O)c2ccc(CC(C)C)cc2)C(=O)O)cc1 (stereo unspecified)" assay_target="Rattus norvegicus" reported=-66
compound=CC(C)(CO)CCCCC(=O)CCCCC(C)(C)CO assay_target="Rattus norvegicus" reported=-29
compound="CC(CO)(CCCCCC(=O)CCCCCC(C)(CO)c1ccccc1)c1ccccc1 (stereo unspecified)" assay_target="Rattus norvegicus" reported=1
compound=CC(C)(CCCCCCCC(=O)CCCCCCCC(C)(C)C(=O)O)C(=O)O assay_target="Rattus norvegicus" reported=-63

----------
System: Rattus norvegicus
Measurement notes: Percentage change of triglycerides in obese female Zucker rats after 1 week of pre-treatment at a dose of 100 mg/kg/day
Format: functional
Parameter measured: Change (%)

compound=CC(C)(CCCCCCCC(=O)CCCCCCCC(C)(C)C(=O)O)C(=O)O assay_target="Rattus norvegicus" reported=-85
compound="CC(C)Cc1ccc(C(C)(CO)CCCCC(=O)CCCCC(C)(CO)c2ccc(CC(C)C)cc2)cc1 (stereo not given)" assay_target="Rattus norvegicus" reported=-10
compound=CC(C)(CO)CCCC(=O)CCCC(C)(C)CO assay_target="Rattus norvegicus" reported=-31
compound="CC(C)OC(=O)C(C)(C)Oc1ccc(C(=O)c2ccc(Cl)cc2)cc1 [FENOFIBRATE]" assay_target="Rattus norvegicus" reported=6
compound="CC(CO)(CCCCCC(=O)CCCCCC(C)(CO)c1ccccc1)c1ccccc1 (stereo not given)" assay_target="Rattus norvegicus" reported=24
compound=CC(C)(CO)CCCCCC(=O)CCCCC(C)(C)CO assay_target="Rattus norvegicus" reported=-85
compound=CC(C)(CO)CCCCCC(=O)CCCCCC(C)(C)CO assay_target="Rattus norvegicus" reported=-92
compound="CC(C)Cc1ccc(C(C)(CCCCC(=O)CCCCC(C)(C(=O)O)c2ccc(CC(C)C)cc2)C(=O)O)cc1 (stereo not given)" assay_target="Rattus norvegicus" reported=-63
compound=CC(C)(CCCCCC(=O)CCCCC(C)(C)C(=O)O)C(=O)O assay_target="Rattus norvegicus" reported=-65
compound=CC(C)(CCCCC(=O)CCCCC(C)(C)C(=O)O)C(=O)O assay_target="Rattus norvegicus" reported=-75

----------
Measurement notes: Concentration required for inhibition of lipid synthesis in primary cultures of rat hepatocytes
Type: functional, cell-based
Test parameters: Hepatocyte
pIC50: −log10 of the molar value.
Parameter measured: pIC50

smiles_string=CC(C)(CO)CCCCCCC(=O)CCCCCCC(C)(C)CO reported=5.70
smiles_string=CC(C)(CCCCC(=O)CCCC(C)(C)C(=O)O)C(=O)O reported=5.10
smiles_string=CC(C)(CCCCCC(=O)CCCCC(C)(C)C(=O)O)C(=O)O reported=5.52
smiles_string=CC(C)(CO)CCCCCC(=O)CCCCC(C)(C)CO reported=5.70

----------
Each item that follows carries a reported IC50.
Measurement notes: Concentration required for inhibition of lipid synthesis in primary cultures of rat hepatocytes
Type: functional, cell-based
Test parameters: Hepatocyte
Parameter measured: IC50 (µM)

compound=CC(C)(CO)Cc1cccc(C(=O)c2cccc(CC(C)(C)CO)c2)c1 parameter_measured=IC50 reported=52
compound=CC(C)(CCCCC(=O)CCCCC(C)(C)C(=O)O)C(=O)O parameter_measured=IC50 reported=3
compound=CC(C)(CO)CCCC(=O)CCCC(C)(C)CO parameter_measured=IC50 reported=27
compound=CC(C)(CCCCCCCC(=O)CCCCCCCC(C)(C)C(=O)O)C(=O)O parameter_measured=IC50 reported=5
compound=CC(C)(CCCCCC(=O)CCCCCC(C)(C)C(=O)O)C(=O)O parameter_measured=IC50 reported=3
compound="CC(C)(CO)CCCCC(=O)CCCCC(C)(CO)c1ccccc1 (stereo unspecified)" parameter_measured=IC50 reported=1
compound=CC(C)(CO)CCCCCC(=O)CCCCCC(C)(C)CO parameter_measured=IC50 reported=3
compound=CC(C)(CCCCCCC(=O)CCCCCCC(C)(C)C(=O)O)C(=O)O parameter_measured=IC50 reported=9
compound="CC(CO)(CCCCCC(=O)CCCCCC(C)(CO)c1ccccc1)c1ccccc1 (stereo unspecified)" parameter_measured=IC50 reported=93
compound=CC(C)(CO)CCCCC(=O)CCCCC(C)(C)CO parameter_measured=IC50 reported=4
compound=CCCCCCCCCCCCCCSCC(=O)O parameter_measured=IC50 reported=43

----------
// values below are reported Change
System: Rattus norvegicus
Measurement notes: Percentage change of triglycerides in obese female Zucker rats after 1 week of pre-treatment at a dose of 100 mg/kg/day
Assay type: functional
Parameter measured: Change (%)

compound=CC(C)(CO)CCCCC(=O)CCCCC(C)(C)CO unit_name=% reported=-54
compound=CC(C)(CO)Cc1cccc(C(=O)c2cccc(CC(C)(C)CO)c2)c1 unit_name=% reported=-29
compound=CC(C)(CO)CCCCC(=O)CCCC(C)(C)CO unit_name=% reported=-40
compound="CC(CCCC(=O)CCCC(C)(C(=O)O)c1ccccc1)(C(=O)O)c1ccccc1 (configuration not stated)" unit_name=% reported=10
compound=CC(C)(CCCCCC(=O)CCCCCC(C)(C)C(=O)O)C(=O)O unit_name=% reported=-93
compound="CC(CO)(CCCC(=O)CCCC(C)(CO)c1ccccc1)c1ccccc1 (configuration not stated)" unit_name=% reported=-20
compound="CC(CCCCC(=O)CCCCC(C)(C(=O)O)c1ccccc1)(C(=O)O)c1ccccc1 (configuration not stated)" unit_name=% reported=-36

----------
Test system: Rattus norvegicus
Measurement notes: Percentage change of HDL cholesterol levels in obese female Zucker rats after 2 weeks of pre-treatment at a dose of 100 mg/kg/day
Format: functional
Reported Change maps to class as: bottom = under 10%, middle = from 10% up to 50%, top = 50% and over

compound=CC(C)(CO)CCCCC(=O)CCCC(C)(C)CO assay_target="Rattus norvegicus" label_value=middle
compound=CC(C)(CO)CCCC(=O)CCCC(C)(C)CO assay_target="Rattus norvegicus" label_value=bottom
compound="CC(C)Cc1ccc(C(C)(CCCCC(=O)CCCCC(C)(C(=O)O)c2ccc(CC(C)C)cc2)C(=O)O)cc1 (stereo not given)" assay_target="Rattus norvegicus" label_value=top
compound="CC(C)Cc1ccc(C(C)(CO)CCCCC(=O)CCCCC(C)(CO)c2ccc(CC(C)C)cc2)cc1 (stereo not given)" assay_target="Rattus norvegicus" label_value=bottom
compound="CC(CCCCC(=O)CCCCC(C)(C(=O)O)c1ccccc1)(C(=O)O)c1ccccc1 (stereo not given)" assay_target="Rattus norvegicus" label_value=middle
compound="CC(CCCC(=O)CCCC(C)(C(=O)O)c1ccccc1)(C(=O)O)c1ccccc1 (stereo not given)" assay_target="Rattus norvegicus" label_value=middle
compound="CC(CO)(CCCC(=O)CCCC(C)(CO)c1ccccc1)c1ccccc1 (stereo not given)" assay_target="Rattus norvegicus" label_value=bottom
compound=CC(C)(CCCCCCCC(=O)CCCCCCCC(C)(C)C(=O)O)C(=O)O assay_target="Rattus norvegicus" label_value=top
compound=CC(C)(CO)CCCCCC(=O)CCCCC(C)(C)CO assay_target="Rattus norvegicus" label_value=top

----------
Tested on: Rattus norvegicus
Measurement notes: Percentage change of HDL cholesterol levels in obese female Zucker rats after 2 weeks of pre-treatment at a dose of 100 mg/kg/day
Format: functional
Parameter measured: Change

compound=CC(C)(CCCCCC(=O)CCCCC(C)(C)C(=O)O)C(=O)O assay_target="Rattus norvegicus" parameter_measured=Change reported=72%
compound=CC(C)(CO)Cc1cccc(C(=O)c2cccc(CC(C)(C)CO)c2)c1 assay_target="Rattus norvegicus" parameter_measured=Change reported=-11%
compound="CC(C)OC(=O)C(C)(C)Oc1ccc(C(=O)c2ccc(Cl)cc2)cc1 [FENOFIBRATE]" assay_target="Rattus norvegicus" parameter_measured=Change reported=-14%
compound=CC(C)(CCCCC(=O)CCCCC(C)(C)C(=O)O)C(=O)O assay_target="Rattus norvegicus" parameter_measured=Change reported=78%

----------
Tested on: Rattus norvegicus
Measurement notes: Percentage change of triglycerides in obese female Zucker rats after 2 weeks of pre-treatment at a dose of 100 mg/kg/day
Type: functional
Recorded measurements of Change, one per entry
Parameter measured: Change (%)

compound=CC(C)(CO)CCCC(=O)CCCC(C)(C)CO assay_target="Rattus norvegicus" parameter_measured=Change unit_name=% reported=10
compound=CC(C)(CCCCCC(=O)CCCCCC(C)(C)C(=O)O)C(=O)O assay_target="Rattus norvegicus" parameter_measured=Change unit_name=% reported=-94
compound="CC(CO)(CCCC(=O)CCCC(C)(CO)c1ccccc1)c1ccccc1 (stereo unspecified)" assay_target="Rattus norvegicus" parameter_measured=Change unit_name=% reported=-17
compound="CC(CCCC(=O)CCCC(C)(C(=O)O)c1ccccc1)(C(=O)O)c1ccccc1 (stereo unspecified)" assay_target="Rattus norvegicus" parameter_measured=Change unit_name=% reported=27
compound=CC(C)(CCCCCC(=O)CCCCC(C)(C)C(=O)O)C(=O)O assay_target="Rattus norvegicus" parameter_measured=Change unit_name=% reported=-62
compound=CC(C)(CCCCC(=O)CCCCC(C)(C)C(=O)O)C(=O)O assay_target="Rattus norvegicus" parameter_measured=Change unit_name=% reported=-69
compound=CC(C)(CO)CCCCCC(=O)CCCCCC(C)(C)CO assay_target="Rattus norvegicus" parameter_measured=Change unit_name=% reported=-92
compound=CC(C)(CO)CCCCCC(=O)CCCCC(C)(C)CO assay_target="Rattus norvegicus" parameter_measured=Change unit_name=% reported=-87
compound="CC(C)OC(=O)C(C)(C)Oc1ccc(C(=O)c2ccc(Cl)cc2)cc1 [FENOFIBRATE]" assay_target="Rattus norvegicus" parameter_measured=Change unit_name=% reported=-8
compound=CC(C)(CO)CCCCC(=O)CCCC(C)(C)CO assay_target="Rattus norvegicus" parameter_measured=Change unit_name=% reported=-12
compound="CC(CCCCC(=O)CCCCC(C)(C(=O)O)c1ccccc1)(C(=O)O)c1ccccc1 (stereo unspecified)" assay_target="Rattus norvegicus" parameter_measured=Change unit_name=% reported=-8
